- measurement notes: Chemical stability assessment in formulation (UPLC-UV-MS purity loss at 37° C.)
- Format: physicochemical
- condition notes: 8 mM phosphate buffer pH 7.4, 1 mg/mL, 2 weeks
Numbered stars: 1 amine (or outer) side, 2 acyl side, 3 side chain; on linkers, the order of the positions; unused ones are H or OH. Square brackets hold non-standard residues; d marks the D form. Side chains are listed from the residue outwards. * marks the point of attachment. C18 diacid = O=C(O)CCCCCCCCCCCCCCCCC(=O)*; C16 diacid = O=C(O)CCCCCCCCCCCCCCC(=O)*; γGlu = O=C(O)[C@H](CCC(=O)[*:2])N[*:1]; AEEA = NCCOCCOCC(=O)O; Aib = CC(C)(N)C(=O)O
measured metric: Purity loss per week at 37° C. (%)
API: value field is a number in %; no unit string.

Below, each entry is followed by its recorded Purity loss per week at 37° C. result.
Challenge: // lookup Purity loss per week at 37° C. for H[Aib]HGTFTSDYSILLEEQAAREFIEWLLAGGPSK([AEEA-AEEA-γGlu-C18 diacid])GEASQLSTAALGRLSAELHGLATLPRTETGSGSP-NH2 [Compound 65]
Response given: 2.1

Challenge: Follow-up item: H[Aib]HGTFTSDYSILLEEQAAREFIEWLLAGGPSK([AEEA-AEEA-γGlu-C18 diacid])GAPPPSGGGEASELSTAALGRLSAELHELATLPRTETGSGSP-NH2 [Compound 15]
Response given: 3.8

Challenge: Follow-up item: H[Aib]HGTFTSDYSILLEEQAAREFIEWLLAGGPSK([AEEA-AEEA-γGlu-C16 diacid])GAPPPSGGGEASHLSTAQTARLSAELHRLADLPRTETGSGSP-NH2 [Compound 61]
Response given: 2.0

Next:
Challenge: // lookup Purity loss per week at 37° C. for H[Aib]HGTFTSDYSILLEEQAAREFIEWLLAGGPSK([AEEA-AEEA-γGlu-C16 diacid])GEASELSTAALGRLSAELHRLATLPRTETGSGSP-NH2 [Compound 17]
Response given: 4.2
